target_system: UniProtKB P22748
Sequence (P22748 19-312): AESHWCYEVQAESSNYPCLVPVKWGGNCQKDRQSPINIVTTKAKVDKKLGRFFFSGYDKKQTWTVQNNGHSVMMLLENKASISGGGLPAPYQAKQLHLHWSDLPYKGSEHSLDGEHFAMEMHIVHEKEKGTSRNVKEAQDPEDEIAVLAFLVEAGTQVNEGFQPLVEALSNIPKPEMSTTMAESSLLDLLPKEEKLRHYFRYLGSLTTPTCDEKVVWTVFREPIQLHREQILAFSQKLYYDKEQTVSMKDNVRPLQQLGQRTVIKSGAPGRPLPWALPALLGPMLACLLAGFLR
measurement_description: stopped-flow CO2 hydration CA inhibition assay
test_context: recombinant human CA IV; stopped-flow CO2 hydrase assay; errors ±5%, three determinations; read-out: K i CA IV
pKi: −log10 of the molar value.
result_type: pKi

COc1c(Br)cc(/C=C/C(=O)NCCCNCCCCNCCCN)cc1Br | 5.17
O=C(NCCCCNCCCNC(=O)c1ccc(O)c(O)c1)c1ccc(O)c(O)c1 | 5.15
COc1c(Br)cc(/C=C/C(=O)NCCCNCCCCN)cc1Br | 5.04
COc1c(Br)cc(/C=C/C(=O)NCCCNCCCCNCCCNC(=O)/C=C/c2cc(Br)c(OC)c(Br)c2)cc1Br | 5.04

---

target_system: hCA XII (Homo sapiens, UniProt O43570)
Sequence (O43570 25-354): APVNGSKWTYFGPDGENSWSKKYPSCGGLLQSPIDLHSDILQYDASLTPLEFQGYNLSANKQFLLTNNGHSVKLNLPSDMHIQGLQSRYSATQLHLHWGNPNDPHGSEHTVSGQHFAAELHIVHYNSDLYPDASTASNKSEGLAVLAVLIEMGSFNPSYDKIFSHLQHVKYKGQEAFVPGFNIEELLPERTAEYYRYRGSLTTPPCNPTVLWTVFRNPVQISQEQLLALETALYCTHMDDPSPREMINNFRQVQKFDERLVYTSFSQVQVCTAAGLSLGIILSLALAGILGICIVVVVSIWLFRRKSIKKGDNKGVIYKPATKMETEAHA
measurement_description: stopped-flow CO2 hydration CA inhibition assay
test_context: recombinant human CA XII; stopped-flow CO2 hydrase assay; errors ±5%, three determinations; read-out: K i CA XII
pKi: −log10 of the molar value.
result_type: pKi

COc1c(Br)cc(/C=C/C(=O)NCCCNCCCCNCCCNC(=O)/C=C/c2cc(Br)c(OC)c(Br)c2)cc1Br [Polyamine 3, ianthelliformisamine C] | 5.46
COc1c(Br)cc(/C=C/C(=O)NCCCNCCCCNCCCN)cc1Br [Polyamine 1, ianthelliformisamine A] | 5.55
COc1c(Br)cc(/C=C/C(=O)NCCCNCCCCN)cc1Br [Polyamine 2, ianthelliformisamine B] | 5.46
O=C(NCCCCNCCCNC(=O)c1ccc(O)c(O)c1)c1ccc(O)c(O)c1 [Polyamine 5, pistillarin] | 5.38

---

target_system: hCA IX (Homo sapiens, UniProt Q16790)
measurement_description: stopped-flow CO2 hydration CA inhibition assay
test_context: recombinant human CA IX; stopped-flow CO2 hydrase assay; errors ±5%, three determinations; read-out: K i CA IX
result_type: Ki (µM)

The following compounds have reported results that may help.
COc1c(Br)cc(/C=C/C(=O)NCCCNCCCCN)cc1Br | 0.35
COc1c(Br)cc(/C=C/C(=O)NCCCNCCCCNCCCNC(=O)/C=C/c2cc(Br)c(OC)c(Br)c2)cc1Br | 0.27

[a] COc1c(Br)cc(/C=C/C(=O)NCCCNCCCCNCCCN)cc1Br
[b] O=C(NCCCCNCCCNC(=O)c1ccc(O)c(O)c1)c1ccc(O)c(O)c1
Select the item with the higher value of Ki from the options a and b listed. Answer = label.
b
(b: 0.36 µM, a: 0.2 µM)

---

target_system: hCA XIV (Homo sapiens)
Construct: made in house; host or cells: E. coli
Sequence (Q9ULX7 16-337): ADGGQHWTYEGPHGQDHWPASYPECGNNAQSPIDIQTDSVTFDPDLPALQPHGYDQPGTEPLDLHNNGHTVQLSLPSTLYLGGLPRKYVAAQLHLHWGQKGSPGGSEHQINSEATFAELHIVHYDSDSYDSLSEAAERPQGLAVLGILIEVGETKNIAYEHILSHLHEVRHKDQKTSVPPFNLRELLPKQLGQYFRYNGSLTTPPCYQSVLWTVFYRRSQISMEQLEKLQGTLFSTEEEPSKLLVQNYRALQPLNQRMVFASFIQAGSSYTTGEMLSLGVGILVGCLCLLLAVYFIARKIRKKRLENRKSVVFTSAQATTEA
measurement_description: stopped-flow CO2 hydration CA inhibition assay
Assay type: biochemical
test_context: recombinant human CA XIV; stopped-flow CO2 hydrase assay; errors ±5%, three determinations; read-out: K i CA XIV
pKi: −log10 of the molar value.
result_type: pKi

The following compounds have reported results that may help.
COc1c(Br)cc(/C=C/C(=O)NCCCNCCCCN)cc1Br | 5.64
COc1c(Br)cc(/C=C/C(=O)NCCCNCCCCNCCCN)cc1Br | 5.67

[P] COc1c(Br)cc(/C=C/C(=O)NCCCNCCCCNCCCNC(=O)/C=C/c2cc(Br)c(OC)c(Br)c2)cc1Br
[Q] O=C(NCCCCNCCCNC(=O)c1ccc(O)c(O)c1)c1ccc(O)c(O)c1
Select the item with the higher value of pKi from the options P and Q listed. Answer = label.
Q

---

target_system: hCA I (Homo sapiens, UniProt P00915)
Construct: made in house; host or cells: E. coli
Sequence (P00915 whole entry): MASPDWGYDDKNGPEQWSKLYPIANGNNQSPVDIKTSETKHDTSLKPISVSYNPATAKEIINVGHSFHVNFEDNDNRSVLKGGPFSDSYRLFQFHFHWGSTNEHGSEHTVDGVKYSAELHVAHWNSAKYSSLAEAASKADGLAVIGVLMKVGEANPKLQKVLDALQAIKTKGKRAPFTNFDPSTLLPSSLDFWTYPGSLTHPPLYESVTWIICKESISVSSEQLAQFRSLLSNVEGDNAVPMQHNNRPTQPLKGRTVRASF
measurement_description: stopped-flow CO2 hydration CA inhibition assay
Type: biochemical
test_context: recombinant human CA I; stopped-flow CO2 hydrase assay; errors ±5%, three determinations; read-out: K i CA I
result_type: Ki (nM)

The following compounds have reported results that may help.
O=C(NCCCCNCCCNC(=O)c1ccc(O)c(O)c1)c1ccc(O)c(O)c1 | 790
COc1c(Br)cc(/C=C/C(=O)NCCCNCCCCNCCCNC(=O)/C=C/c2cc(Br)c(OC)c(Br)c2)cc1Br | 860

[I] COc1c(Br)cc(/C=C/C(=O)NCCCNCCCCN)cc1Br
[II] COc1c(Br)cc(/C=C/C(=O)NCCCNCCCCNCCCN)cc1Br
Select the item with the higher value of Ki from the options I and II listed. Answer = label.
II
(II: 1760 nM, I: 770 nM)

---

target_system: UniProt:P00918
measurement_description: stopped-flow CO2 hydration CA inhibition assay
test_context: recombinant human CA II; stopped-flow CO2 hydrase assay; errors ±5%, three determinations; read-out: K i CA II
pKi: −log10 of the molar value.
result_type: pKi

COc1c(Br)cc(/C=C/C(=O)NCCCNCCCCNCCCNC(=O)/C=C/c2cc(Br)c(OC)c(Br)c2)cc1Br | 6.46
COc1c(Br)cc(/C=C/C(=O)NCCCNCCCCNCCCN)cc1Br | 6.39
O=C(NCCCCNCCCNC(=O)c1ccc(O)c(O)c1)c1ccc(O)c(O)c1 | 6.47
COc1c(Br)cc(/C=C/C(=O)NCCCNCCCCN)cc1Br | 6.43
